Test system: M. avium
assay.procedure: 45 hr MIC against M. avium (NTM)
Format: cell-based, Mycobacterium avium
test.context: M. avium Chester ATCC 700898
measurement.kind: 45 hr MIC (µg/mL)
Dear colleague, please return just the value in µg/mL, with no unit written.

Example entries begin here.
| sequence.data | measurement.target | 45 hr MIC, µg/mL |
| --- | --- | --- |
| MRRPRKMNYKKSKRMFSRTAARTHRKNSLRGSRPMRGGIRL [Gkh1] | M. avium | 4 |
| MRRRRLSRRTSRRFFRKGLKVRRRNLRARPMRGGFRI [Unp2] | M. avium | 0.5 |

# next sequence below
Record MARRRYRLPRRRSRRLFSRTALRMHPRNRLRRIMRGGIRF [Chp6] has M. avium 45 hr MIC equal to 1

Numbers sourced from patent US20220401514A1.
